read-out: Macrophage colony-stimulating factor (MCSF), CSF1 (gene 1435); assay: BSK_CASM3C_MCSF: BioMAP Diversity Plus: CASM3C Assay for Macrophage colony-stimulating factor (MCSF) Biomarker Activity (AID 2283044); details: primary human coronary artery smooth muscle cells; actives raise or lower the signal;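 further: M-CSF protein amount quantified by ELISA after 24 h exposure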
Active and inactive are the calls of the source. How the source made its calls: active means hit-call score of the fitted dose curve at least 0.9, where 1 is the maximum; inactive means score below 0.9.
Use one of these outcomes when replying: y for active, n for inactive

Look over these answered cases.
In [3]: df
Out[3]:
                   compound  class
0           CCOS(=O)(=O)OCC      n
1  CCOC(=O)c1ccccc1C(=O)OCC      n
2      c1cc2c3c(cccc3c1)CC2      n

Problem: What was the test verdict on OCC(F)(F)OC(F)(F)C(F)(F)OC(F)(F)CO ?
Result: n

Problem: What was the test verdict on c1ccc2c(c1)sc1ccccc12 ?
Result: n

Problem: What was the test verdict on ClC1=C(Cl)C2(Cl)C3C(Cl)C(Cl)CC3C1(Cl)C2(Cl)Cl (centres undefined) ?
Result: n
